biological target: recombinant human NK3 receptor (Homo sapiens); assay: [3H]SR142801 competition binding assay; conditions: membranes from HEK293 cells transiently expressing recombinant human NK3 receptor; [3H]SR142801 radioligand; 75 min at RT; Ki by Cheng-Prussoff; read-out: Data Ki (hNK-3 receptor affinity)
Sequence (P29371 whole entry): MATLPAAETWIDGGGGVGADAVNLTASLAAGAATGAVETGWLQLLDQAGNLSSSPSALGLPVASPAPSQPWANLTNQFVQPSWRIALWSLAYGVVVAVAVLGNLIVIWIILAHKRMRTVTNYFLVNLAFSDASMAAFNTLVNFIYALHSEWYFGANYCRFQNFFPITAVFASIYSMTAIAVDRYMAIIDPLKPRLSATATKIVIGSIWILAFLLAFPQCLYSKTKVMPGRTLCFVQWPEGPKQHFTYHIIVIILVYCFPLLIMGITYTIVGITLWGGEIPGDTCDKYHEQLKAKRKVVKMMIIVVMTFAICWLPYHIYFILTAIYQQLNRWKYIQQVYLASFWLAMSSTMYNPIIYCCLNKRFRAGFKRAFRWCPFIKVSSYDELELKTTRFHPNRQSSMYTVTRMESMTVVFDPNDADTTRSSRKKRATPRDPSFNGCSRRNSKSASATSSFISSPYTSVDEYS
Answer each item with its documented pKi.
Lab note: report pKi as minus log10 of the concentration in molar units, number only.

### Prompt Form entry - test system: recombinant human NK3 receptor (Homo sapiens); read-out: pKi; compound: CC(=O)c1ccc(-c2ccc(C(=O)N3CCC(C(=O)N[C@@H](C)c4ccccc4)(c4ccccc4)CC3)cc2)cc1 [Example 59]
### Response 7.43

### Prompt Please provide the recorded pKi for C[C@H](NC(=O)C1(c2ccc(F)cc2)CCN(C(=O)N2CCN(c3ccc(F)cc3)CC2)CC1)c1cccc(F)c1 [Example 178] , tested on recombinant human NK3 receptor (Homo sapiens).
### Response 7.72

### Prompt Can you look up pKi on recombinant human NK3 receptor (Homo sapiens) for CN(Cc1ccc(F)cc1)C(=O)C1(c2ccccc2)CCN(C(=O)c2ccc(N3CCS(=O)(=O)CC3)cc2)CC1 [Example 106] ?
### Response 7.25

### Prompt Please state recorded pKi (tested on recombinant human NK3 receptor (Homo sapiens)) of C[C@H](NC(=O)C1(c2ccccc2)CCN(C(=O)c2ccc(-c3cccnc3)cc2)CC1)c1ccccc1 [Example 53]
### Response 7.63

### Prompt Lookup: pKi / recombinant human NK3 receptor (Homo sapiens) / C[C@H](NC(=O)C1(c2ccccc2)CCN(C(=O)N2CCC(N3CCSCC3)CC2)CC1)c1ccc(F)cc1 [Example 222]
### Response 8.00

### Prompt Given the entry C[C@H](NC(=O)C1(c2ccccc2)CCN(C(=O)c2ccc(-n3cnnn3)cc2)CC1)c1ccccc1 [Example 40] , what pKi was observed with recombinant human NK3 receptor (Homo sapiens)?
### Response 7.55

### Prompt What pKi appears in the records for this compound with recombinant human NK3 receptor (Homo sapiens)? C[C@H](NC(=O)C1(c2ccccc2)CCN(C(=O)c2ccc(N3CCCCC3)nc2)CC1)c1ccccc1 [Example 12]
### Response 7.30
